Biological target: T1, biotinylated cynomolgus monkey VWF cysteine knot (CK) domain construct (cynomolgus monkey, biotinylated in vitro (BirA) on the biotinylation tag; one N-glycan)
T1 construct: Expressed in HEK293 EBNA cells; disulfide-linked homodimer; also called cyno VWF CK; cyno VWF CK domain; not shown: in vitro biotinylation tag, HRV-3C site and 3 VWF residues before the CK domain
T1 chain: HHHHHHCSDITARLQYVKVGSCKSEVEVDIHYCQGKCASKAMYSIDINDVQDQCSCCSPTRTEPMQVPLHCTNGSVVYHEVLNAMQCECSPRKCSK
Test: SPR, scFv captured via anti-SV5, CK domain injected, pH 7.4, apparent Kd;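 also: scFvs from crude yeast supernatants printed on an amine-coupled anti-SV5 lawn, Kd computed as koff over kon, likely overestimating affinity because the CK construct is dimeric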
measured_endpoint: Kd (pM)
Give the number; pM is assumed, so skip it.

Please fill in: Kd reported for Lib8_P4_C11_scFv (scFv, VH-linker-VL; not shown: C-terminal 3xFLAG and SV5 tags) scFv: QVQLVQSGAEVKKPGASVKVSCKVSGDTLSNYAIHWVRQAPGKGLEWMGGINPNAGTTIYAQKFQGRVTMTEDTSTDTAYMELSSLKSEDTAVYYCARDSSSWCPVGYYYYYMDVWGKGTTVTVSSSGGSTITSYNVYYTKLSSSGTDIQMTQSPSSVSASVGDRVTITCRASQSIGDFLAWYQQKPGKAPKLLIYDASHLQTGVPSRFSGSGSGTDFTLTISSLQPEDFANYYCQQTSTIPPTFGGGTKVEIK = 155

Please fill in: Kd reported for 11485_Lib1_scFv (scFv, VH-linker-VL; not shown: C-terminal 3xFLAG and SV5 tags) scFv: QVQLVQSGAEVKKPGASVKVSCKVSGAPSAAIIHWVRQAPGKGLEWMGGFTQIFGTAIYAQKFQGRVTMTEDTSTDTAYMELSSLKSEDTAVYYCAREGIGGHDAFDIWGQGTMVTVSSSGGSTITSYNVYYTKLSSSGTDIQMTQSPSSVSASVGDRVTITCRASQDISKNLAWYQQKPGKAPKLLIYKASKLESGVPSRFSGSGSGTDFTLTISSLQPEDFANYYCLHDYTYPPTFGGGTKVEIK = 3160

Please fill in: Kd reported for 256_Lib8_scFv (scFv, VH-linker-VL; not shown: C-terminal 3xFLAG and SV5 tags) scFv: EVQLVESGGGLVQPGRSLRLSCAASGFTVSSNAMHWVRQAPGKGLEWVSAIGTFADTDYADSVEGRFTISRDNAKNSLYLQMNSLRAEDTAVYYCAREGAAAGTNFDYWGQGTLVTVSSSGGSTITSYNVYYTKLSSSGTDIQMTQSPSSLSASVGDRVTITCRASQGIRSYLAWYQQKPGKAPKLLIYGASTLEGGVPSRFSGSGSGTDFTLTISSLQPEDVATYYCQQSYSTPPKFGGGTKVEIK = 758
